Data provenance: patent US20240384236A1

# Test system: primary AML cells
# method description: Sample drug screening: viability of primary AML cells (PrestoBlue) after 24 h drug exposure in nine culture conditions
# cond: Homo sapiens, read-out: IC50 daunorubicin, primary AML cells co-cultured with AML 2DMN
property measured: pIC50
Answers are plain numbers, as −log10 of the molar value.

INPUT: Which measured pIC50 value corresponds to COc1cccc2c1C(=O)c1c(O)c3c(c(O)c1C2=O)C[C@@](O)(C(C)=O)C[C@@H]3O[C@H]1C[C@H](N)[C@H](O)[C@H](C)O1 ?
OUTPUT: 4.13
